// provenance: PubChem BioAssay (NCI)

List of GI50 values.
system: SK-MEL-5 melanoma; experiment: NCI tumour cell line growth inhibition, 48 h

O=C(CC(Cl)=C(Cl)Cl)c1cccc(Cl)c1Cl    > 100 µM
CN1C(=O)C2(c3ccccc31)N(c1ccc(Cl)cc1)C(=O)C2(c1ccccc1)c1ccccc1 (stereo not given)    54.5 µM
CN1CCN(CCCOc2cccc3nc(Nc4ccc(Cl)c(C(F)(F)F)c4)ccc23)CC1    1.69 µM
CO[C@H]1C[C@@H]2CC[C@@H](C)[C@@](O)(O2)C(=O)C(=O)N2CCCC[C@H]2C(=O)O[C@H]([C@H](C)C[C@@H]2CC[C@@H](OCCO)[C@H](OC)C2)CC(=O)[C@H](C)C=C(C)[C@@H](O)[C@@H](OC)C(=O)[C@H](C)C[C@H](C)/C=C/C=C/C=C1C    1.75 µM
c1cc2c(cn1)Nc1ccncc1S2    36.3 µM

# GI50 (molecule: COc1cc2c(=O)[nH]c3cc([N+](=O)[O-])ccc3c2cc1[N+](=O)[O-] ) is 4.63 µM

====

system: HOP-62 NSCLC; assay: NCI tumour cell line growth inhibition, 48 h; in the data active means GI50 below about 0.43 µM; inactive means the rest
Hi! Could you answer with just one of these? 1 (active), -1 (inactive)

CSc1ccc2c(c1)C(N1CCN(C)CC1)Cc1ccccc1S2 (centres undefined)    -1
CC[C@H](C)[C@H](NC(=O)CN(C)C)C(=O)N(C)[C@H](C[C@@H](OC(C)=O)c1nc(C(=O)NC23CC(C(=O)OC)(C2)C3)cs1)C(C)C    -1
COc1ccc(N(C)c2nc(N)nc3sc4c(c23)CCCC4)cc1    1

For O=[N+]([O-])c1cccc(C2CC(c3ccccc3)=Nc3ccccc3S2)c1 (centres undefined) , what call appears in the results of this test?
-1

What classification did Cn1c(-c2c(N)n(CCCN3CCOCC3)c3nc(C#N)c(C#N)nc23)nc2ccccc21 end up with in this test?
-1

Hey, what did the test say about COc1cc2nc3cc([N+](=O)[O-])ccc3c(NCCNCC(C)(C)O)c2cc1OC ?
-1

# lookup: test call for COc1nnc2ccc(N3CCC(c4ccc(OCCN5CCN(C)C(=O)[C@H]5C)cc4)CC3)nn12
1

Tell me the assay call for CC(=O)c1c(C)[nH]c(-c2nc3ccc(N4CCN(C)CC4)cc3[nH]2)c1-c1ccccc1 please.
-1

Outcome logged for CN(CCCNC(=O)CCOCCOCCOCCNC(=O)Cc1ccc2ccc3cccc4ccc1c2c34)CCCNc1cc(-c2ccc3ccccc3c2)nc2ccccc12 in this assay:
-1

====

Below, each of the compounds is paired with its reported TGI value.
tested on: SNB-75 CNS; test: NCI tumour cell line growth inhibition, 48 h

Solved cases below.
N#CC1c2ccccc2C=CN1C(=O)N(c1ccccc1)c1ccccc1 (stereo not drawn)    21 µM
O=S(=O)(c1cnccc1N1CCN(CCO)CC1)N1CCCC1    > 100 µM

We now examine a further compound.
Looking up CSc1c(C(=O)Nc2ccc(Cl)cc2)c(N)n(N)c(=O)c1C#N , I found its TGI recorded as > 100 µM

====

log10 of TGI values by entry
system: SF-268 CNS; experiment: NCI tumour cell line growth inhibition, 48 h
Hello, just confirming the data are log10 of TGI with units of µM.

Some entries whose results are on file:
COc1cc2nc3cc([N+](=O)[O-])ccc3c(NCCNCC(C)(C)O)c2cc1OC    0.40
COc1ccc2oc(=O)c(-c3csc(C)n3)cc2c1    1.70
CSC(=Nc1ccccc1)/N=C(\SCc1ccccc1)N(C)C    0.39

Just so you know, measured log10 of TGI for CCOC(=O)Oc1ccc2c(c1)c(=O)c1c(NCCN(CC)CC)ccc3nnn2c31 came out at 1.23

log10 of TGI reported for this compound CCC(=O)c1c(C(F)(F)F)n([O-])c2cc(F)c(F)cc2[n+]1=O : 0.51

Reported log10 of TGI for COC(=O)c1ccc(NC(=O)Oc2ccc(N(CCCl)CCCl)cc2)cc1 was 1.27
